A compilation of pIC50 values for Hepatocyte growth factor receptor (Homo sapiens, UniProt P08581) from the published literature.
pIC50: −log10 of the molar value.
// thresholds for pIC50 classes: low end (below 6), middle (6 to below 8), high end (8 or more)

Answered examples (2):
>>> assigned_label("Cc1nc2ncc(-c3cnn(C)c3)nc2n1Cc1ccc2ncccc2c1")
"middle"
>>> assigned_label("O=C(Nc1ccc(F)cc1)C1(C(=O)Nc2ccc(Oc3ncnc4c3N=Cc3ccccc3O4)cc2)CC1")
"low end"

**Q:** Band for the recorded pIC50 of O=C(Nc1ccc(Nc2ncnc3sc4c(c23)CCCC4)cc1)Nc1cccc(Br)c1 ?
**A:** low end

**Q:** Please let me know in which category the item Cn1cc(-c2cnc3ccc(Cn4nc(-c5ccccc5)ccc4=O)cc3c2)cn1 belongs.
**A:** middle

**Q:** Each compound maps to one class by pIC50. Which class for COc1cc2c(Oc3ccc(Nc4nccc5[nH]cc(-c6ccc(F)cc6)c(=O)c45)cc3F)ccnc2cc1OCCO ?
**A:** high end

----------
Here we gather IC50 data for UniProtKB P08581 reported by several publications.

Worked set:
>>> value_measured("O=C(NNc1ccc(Cl)cc1)C(=O)c1c[nH]c2ccccc12")
"> 100 µM"
>>> value_measured("CC(=O)/C=C/c1c(Oc2ccc(C)cc2C(C)=O)nc[nH]c1=O")
"> 40 µM"
>>> value_measured("COc1cc2c(cc1OC)Nc1nccc(Oc3ccc(NC(=O)C4(C(=O)Nc5ccc(F)cc5)CC4)cc3)c1N=C2")
"> 1 µM"

In the following, a different compound is considered.
**Q:** Data request, read-out IC50, for O=C(Nc1ccc(F)cc1)C1(C(=O)Nc2ccc(Oc3ccnc4cc(OCCCN5CCCC5)c5c(c34)OCCO5)c(F)c2)CC1
**A:** < 0.05 µM

----------
Below, pIC50 values reported for UniProt P08581 across several publications.
pIC50: −log10 of the molar value.

>>> value_measured("CC(c1ccc2nc(-c3cnn(C)c3)ccc2c1)n1nnc2ncc(-c3ccc(N)cc3)nc21 (centres undefined)")
"< 7.00"
>>> value_measured("COc1cc2ncnc(Nc3ccc(F)c(Cl)c3)c2cc1NC(=O)/C(F)=C/CN(C)C")
"< 5.00"
>>> value_measured("COC(=O)c1cccc(Oc2nc[nH]c(=O)c2CCC(C)=O)c1")
"< 4.40"

Read the next record carefully.
**Q:** For the compound COc1cc2c(cc1OC)Nc1ncnc(Oc3ccc(NC(=O)C4(C(=O)Nc5ccc(F)cc5)CC4)cc3F)c1N(C)C2 , what pIC50 is on record?
**A:** < 6.00

----------
Literature compilation of IC50 measurements on Hepatocyte growth factor receptor (Homo sapiens, UniProt P08581).
Give bare numbers, in nM.

Use the examples below as a reference point.
>>> value_measured("Cc1ccc(Sc2cnc(Nc3cccc(Br)n3)s2)cc1C(=O)N1CCN(C(=O)[C@@H](C)N)CC1")
170
>>> value_measured("COc1cc2c(Oc3ccc(NC(=O)c4c(Cl)c5ccccc5n(-c5ccccc5)c4=O)cc3F)ccnc2cc1OCCCN1CCN(C)CC1")
1.75

For every item in the list below, what is its measured IC50?
1. COc1ccc2c(NCc3nnc4ccc(-c5ccccc5)nn34)ccnc2c1
2. Cn1cc2c(F)c(C(F)(F)c3nnc4ccc(-c5cncc(F)c5)nn34)ccc2n1
3. Cc1cc(=O)n(-c2cccc(F)c2)nc1C(=O)Nc1ccc(Oc2ccnc3[nH]ccc23)cc1
4. COc1cc2c(Oc3ccc(NC(=O)c4c(Cl)c5ccccc5n(-c5ccccc5)c4=O)cc3F)ccnc2cc1OCCCN1CCC(C)CC1
5. COC(=O)c1ccc(-c2cnc3ncn(C(C)c4cc5cccnc5cc4F)c3n2)cc1F (stereo not drawn)
6. COC(C)(C)COc1ccc2c(Oc3ccc(Nc4nccc5[nH]cc(-c6ccc(F)cc6)c(=O)c45)cc3F)ccnc2c1

**A:**
[1370, 261, 11.6, 6.84, 2.9, 13.1]

List the reported IC50 of each molecule below.
1. CCN1CCN(c2ccc(-c3nn(Cc4cn(Cc5ccccc5)nn4)c4nc(NC)ncc34)cn2)CC1
2. COc1cc2c(Oc3ccc(NC(=O)c4nn(-c5ccccc5F)c(=O)n4C)cc3F)ccnc2cc1OCCCN1CCN(C)CC1
3. CCC(c1ccc2ncccc2c1F)n1cnc2ncc(-c3cnc4ccccc4c3)nc21 (stereo not drawn)
4. CCC(c1cc2cccnc2cc1F)n1cnc2ncc(-c3ccc(C(=O)NC)c(F)c3)nc21 (stereo not drawn)

**A:**
6300
1.57
16.4
9.4
